Where these numbers come from: patent US10597388B2

Attribute: Plant response rating (scale of 0 to 100), Radish, Wild
test system: radish, wild (wild radish, Raphanus raphanistrum); experiment: Test D controlled growth environment herbicide test, pre- and postemergence; type: in vivo; details: Preemergence, 31 g ai/ha

Illustrative cases are given below, each with its answer.
smiles_representation	value_measured
Cc1cc2ccccc2c(-c2c(O)c(C)nn(C)c2=O)c1C	0
Cc1nn(C)c(=O)c(-c2cccc3ccc(Br)cc23)c1O	5

// field: Plant response rating (scale of 0 to 100), Radish, Wild; key: Cc1nn(C)c(=O)c(-c2ccc(F)c3ccccc23)c1O ; value = 25

// field: Plant response rating (scale of 0 to 100), Radish, Wild; key: CCc1sc2ccc(C)cc2c1-c1c(O)c(C)nn(C)c1=O ; value = 20

// field: Plant response rating (scale of 0 to 100), Radish, Wild; key: Cc1nn(C)c(=O)c(-c2ccc(Br)c3ccccc23)c1O ; value = 40

// field: Plant response rating (scale of 0 to 100), Radish, Wild; key: CC(=O)Oc1c(C)nn(C)c(=O)c1-c1c(C)sc2ccc(Cl)cc12 ; value = 45
